# Test system: A549/ATCC NSCLC
# procedureText: NCI-60 one-dose screen, 48 h (100 = growth as untreated, 0 = no growth, -100 = all killed)
# measurementParameters: 10 µM unless noted
Compounds without any hit were thinned out: in the full panel of roughly 83,000, 20% have a hit.
recordedMetric: growth (%)
Reply with just the number (in %).

CC[C@H](C)[C@H](NC(=O)[C@H]1CCCCN1C)C(=O)N(C)[C@H](C[C@@H](OC(C)=O)c1nc(C(=O)NC23CC(C(=O)OC)(C2)C3)cs1)C(C)C: 9.09
CC[C@H](C)[C@H](NC(=O)C12C3C4C1C1C2C3C41NC)C(=O)N(C)[C@H](C[C@@H](OC(C)=O)c1nc(C(=O)N[C@@H](Cc2ccccc2)C[C@H](C)C(=O)OC)cs1)C(C)C (some centres undefined): 31.4
COc1ccc(/C=C\c2cc(OC)c(OC)c(OC)c2)cc1NC(=O)/C=C/c1cc(OC)c(OC)c(OC)c1: 56.6

// below: growth requested for another molecule
So for Clc1cccc(Cl)c1Cl , the logged growth turned out to be 85.9
